molecular target: 5-hydroxytryptamine receptor 2A (Rattus norvegicus)
Sequence (P14842 whole entry): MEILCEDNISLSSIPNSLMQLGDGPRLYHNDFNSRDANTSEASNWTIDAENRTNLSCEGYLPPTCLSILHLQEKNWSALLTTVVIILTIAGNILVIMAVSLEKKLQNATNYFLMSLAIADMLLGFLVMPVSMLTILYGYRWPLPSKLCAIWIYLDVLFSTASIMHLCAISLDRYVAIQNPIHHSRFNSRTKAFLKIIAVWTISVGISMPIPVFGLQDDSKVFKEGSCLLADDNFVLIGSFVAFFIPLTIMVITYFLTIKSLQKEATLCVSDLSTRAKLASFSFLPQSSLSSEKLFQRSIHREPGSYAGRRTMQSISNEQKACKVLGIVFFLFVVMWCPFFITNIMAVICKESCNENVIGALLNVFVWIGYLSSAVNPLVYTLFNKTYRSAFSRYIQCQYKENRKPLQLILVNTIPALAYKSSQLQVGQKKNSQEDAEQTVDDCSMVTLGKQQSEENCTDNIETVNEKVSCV
measured property: Ki (nM)
Output spec: scalar in nM, unitless text.

What value of measured Ki is listed for CN1CCc2cc([N+](=O)[O-])c(O)cc2C(c2cccc3c2OCC3)C1 (stereo unspecified) ?
355

* * *

measured property: pKi
Please keep in mind that pKi is minus log10 of the molar concentration; only the number is needed.

Quick check: pKi on Adenylate cyclase type 2 (Rattus norvegicus, UniProt P26769), item CN1CCc2cc(Cl)c(O)cc2[C@@H](c2ccccc2)C1 [SCH 23390,R(+)] ?
7.40

Quick check: pKi on Adenylate cyclase type 2 (Rattus norvegicus, UniProt P26769), item CN1CCc2cc([N+](=O)[O-])c(O)cc2C(c2cccc3c2OCC3)C1 (centres undefined) ?
8.04

Quick check: pKi on Adenylate cyclase type 2 (Rattus norvegicus, UniProt P26769), item `CN1CCc2cc(Cl)c(O)cc2[C@@H](c2cccc3ccoc23)C1` ?
8.55

Quick check: pKi on Adenylate cyclase type 2 (Rattus norvegicus, UniProt P26769), item `Oc1cc2c(cc1O)[C@@H](c1ccccc1)CNCC2` ?
6.38
